tested on: M14 melanoma; assay: NCI tumour cell line growth inhibition, 48 h
parameter: TGI

[[record]]
molecule = "COc1cccc2c3cccc(OC)c3c3[nH]cnc3c12"
result = "3.08 µM"

[[record]]
molecule = "Nc1nn(C(=O)Nc2ccc(Cc3ccccc3)cc2)c2ccc(Cl)cc12"
result = "11.7 µM"

[[record]]
molecule = "Cc1cc(O)c2c(c1O)C(=O)c1c(O)ccc(O)c1C2=O"
result = "> 100 µM"

[[record]]
molecule = "CC1C(=O)CCC1C(Sc1ccccc1)(Sc1ccccc1)Sc1ccccc1 (configuration not stated)"
result = "> 100 µM"

[[record]]
molecule = "COc1cc(S(=O)(=O)N/N=C/C=C/c2ccccc2)c(OC)cc1NC(C)=O"
result = "> 100 µM"

[[record]]
molecule = "CCOC(=O)c1c(N2CCOCC2)[nH]c(=O)c(C(c2c(O)c(C(=O)OCC)c(N3CCOCC3)[nH]c2=O)C(C)C)c1O"
result = "> 100 µM"

[[record]]
molecule = "Cn1c(=O)c2[nH]c(/N=N\\n3ccc4ccccc43)nc2n(C)c1=O"
result = "> 100 µM"

